# protocol-details: Pharmacokinetics of NA and NUA in plasma after single oral doses of Niacin extended-release/Simvastatin tablets in healthy Chinese volunteers
# Format: in vivo
# measurement-context: both sexes, human, in vivo, po, 1 tablet (500 mg/10 mg), mean ± S.D., n = 12, read-out: V z/F
metric-name: Vd/F (L)
Numbers only, in L.

Please report the recorded Vd/F for "O=C(O)CNC(=O)c1cccnc1" .
649

###

# protocol-details: Pharmacokinetics of NA and NUA in plasma after single oral doses of Niacin extended-release/Simvastatin tablets in healthy Chinese volunteers
# Assay type: in vivo
# measurement-context: both sexes, human, in vivo, po, 3 tablets (1500 mg/30 mg), mean ± S.D., n = 12, read-out: MRT0–t
metric-name: MRT last (h)
One number for each entry, in h.

Which MRT last is listed for "O=C(O)CNC(=O)c1cccnc1" ?
3.79

###

# protocol-details: Pharmacokinetics of NA and NUA in plasma after single oral doses of Niacin extended-release/Simvastatin tablets in healthy Chinese volunteers
# Type: in vivo
# measurement-context: both sexes, human, in vivo, po, 2 tablets (1000 mg/20 mg), mean ± S.D., n = 12, read-out: K e (converted)
# Procedure: Extraction of NA and NUA was carried out by protein precipitation. First, 50 μL of the IS working solution (1000 ng/mL 5-FU) and 50 μL of water were added to a 100 μL aliquot of human plasma. […] The pharmacokinetic parameters were calculated with data analysis system (DAS) program (version 2.0, Mathematical Pharmacology Professional Committee, Shanghai, China). […] The area under the curve from time zero to the last sampling time (AUC0−t) was determined using the linear trapezoidal rule.
metric-name: k el (s⁻¹)
Give bare numbers, in s⁻¹.

Which k el is listed for "O=C(O)CNC(=O)c1cccnc1" ?
9.17e-05

###

# protocol-details: Pharmacokinetics of NA and NUA in plasma after single oral doses of Niacin extended-release/Simvastatin tablets in healthy Chinese volunteers
# Type: in vivo
# measurement-context: both sexes, human, plasma, po, 1 tablet (500 mg/10 mg), mean ± S.D., n = 12
metric-name: half-life (h)
Numbers only, in h.

Query: half-life; subject: "O=C(O)c1cccnc1"
8.8

###

# protocol-details: Pharmacokinetics of NA and NUA in plasma after single oral doses of Niacin extended-release/Simvastatin tablets in healthy Chinese volunteers
# Assay type: in vivo
# measurement-context: both sexes, human, plasma, po, 2 tablets
metric-name: AUC(0-t) (ng·h/mL)
One number for each entry, in ng·h/mL.

Entry O=C(O)c1cccnc1 [NA, 3-pyridine-carboxylic acid] : reported AUC(0-t) = ?
1540

###

# protocol-details: Pharmacokinetics of NA and NUA in plasma after single oral doses of Niacin extended-release/Simvastatin tablets in healthy Chinese volunteers
# Format: in vivo
# measurement-context: both sexes, human, plasma, po, 1 tablet (500 mg/10 mg), mean ± S.D., n = 12
metric-name: AUC(0-t)

Which measured AUC(0-t) value corresponds to O=C(O)c1cccnc1 [NA, 3-pyridine-carboxylic acid] ?
385 ng·h/mL

###

# protocol-details: Pharmacokinetics of NA and NUA in plasma after single oral doses of Niacin extended-release/Simvastatin tablets in healthy Chinese volunteers
# Format: in vivo
# measurement-context: both sexes, human, plasma, po, 2 tablets (1000 mg/20 mg), mean ± S.D., n = 12
metric-name: half-life (h)
Numbers only, in h.

Record request: half-life value, item O=C(O)c1cccnc1 [NA, 3-pyridine-carboxylic acid]
7.33

###

# protocol-details: Pharmacokinetics of NA and NUA in plasma after single oral doses of Niacin extended-release/Simvastatin tablets in healthy Chinese volunteers
# Type: in vivo
# measurement-context: both sexes, human, plasma, po, 3 tablets
metric-name: AUC(0-t) (ng·h/mL)
Give bare numbers, in ng·h/mL.

For the compound O=C(O)c1cccnc1 [NA, 3-pyridine-carboxylic acid] , what AUC(0-t) is on record?
6020

###

# protocol-details: Pharmacokinetics of NA and NUA in plasma after single oral doses of Niacin extended-release/Simvastatin tablets in healthy Chinese volunteers
# Assay type: in vivo
# measurement-context: both sexes, human, in vivo, po, 3 tablets (1500 mg/30 mg), mean ± S.D., n = 12
metric-name: Tmax

Could you tell me which Tmax is on file for O=C(O)CNC(=O)c1cccnc1 [NUA, nicotinuric acid] ?
2.33 h

###

# protocol-details: Pharmacokinetics of NA and NUA in plasma after single oral doses of Niacin extended-release/Simvastatin tablets in healthy Chinese volunteers
# Type: in vivo
# measurement-context: both sexes, human, in vivo, po, 2 tablets (1000 mg/20 mg), mean ± S.D., n = 12, read-out: MRT0–t
# Experimental: Extraction of NA and NUA was carried out by protein precipitation. First, 50 μL of the IS working solution (1000 ng/mL 5-FU) and 50 μL of water were added to a 100 μL aliquot of human plasma. […] The pharmacokinetic parameters were calculated with data analysis system (DAS) program (version 2.0, Mathematical Pharmacology Professional Committee, Shanghai, China). […] The area under the curve from time zero to the last sampling time (AUC0−t) was determined using the linear trapezoidal rule.
metric-name: MRT last (h)
Answers are plain numbers, in h.

Look up MRT last for this molecule: "O=C(O)CNC(=O)c1cccnc1"
3.6

###

# protocol-details: Pharmacokinetics of NA and NUA in plasma after single oral doses of Niacin extended-release/Simvastatin tablets in healthy Chinese volunteers
# Type: in vivo
# measurement-context: both sexes, human, plasma, po, 1 tablet (500 mg/10 mg), mean ± S.D., n = 12, read-out: C max
metric-name: Cmax (ng/mL)
Give bare numbers, in ng/mL.

So what's the measured Cmax for this one? "O=C(O)c1cccnc1"
160

###

# protocol-details: Pharmacokinetics of NA and NUA in plasma after single oral doses of Niacin extended-release/Simvastatin tablets in healthy Chinese volunteers
# Type: in vivo
# measurement-context: both sexes, human, plasma, po, 2 tablets (1000 mg/20 mg), mean ± S.D., n = 12
metric-name: Tmax (h)
One number for each entry, in h.

Tmax for O=C(O)c1cccnc1 [NA, 3-pyridine-carboxylic acid] ?
1.82

###

# protocol-details: Pharmacokinetics of NA and NUA in plasma after single oral doses of Niacin extended-release/Simvastatin tablets in healthy Chinese volunteers
# Assay type: in vivo
# measurement-context: both sexes, human, plasma, po, 1 tablet (500 mg/10 mg), mean ± S.D., n = 12
metric-name: Tmax (h)
Numbers only, in h.

Can you look up the measured Tmax of "O=C(O)c1cccnc1" for me?
2.94

###

# protocol-details: Pharmacokinetics of NA and NUA in plasma after single oral doses of Niacin extended-release/Simvastatin tablets in healthy Chinese volunteers
# Assay type: in vivo
# measurement-context: both sexes, human, in vivo, po, 3 tablets (1500 mg/30 mg), mean ± S.D., n = 12
metric-name: half-life

Which measured half-life value corresponds to "O=C(O)CNC(=O)c1cccnc1" ?
2.72 h

###

# protocol-details: Pharmacokinetics of NA and NUA in plasma after single oral doses of Niacin extended-release/Simvastatin tablets in healthy Chinese volunteers
# Format: in vivo
# measurement-context: both sexes, human, in vivo, po, 2 tablets (1000 mg/20 mg), mean ± S.D., n = 12, read-out: V z/F
metric-name: Vd/F (L)
Give bare numbers, in L.

Look at this molecule and give its reported Vd/F. "O=C(O)CNC(=O)c1cccnc1"
821

###

# protocol-details: Pharmacokinetics of NA and NUA in plasma after single oral doses of Niacin extended-release/Simvastatin tablets in healthy Chinese volunteers
# Type: in vivo
# measurement-context: both sexes, human, in vivo, po, 1 tablet
# Procedure: Extraction of NA and NUA was carried out by protein precipitation. First, 50 μL of the IS working solution (1000 ng/mL 5-FU) and 50 μL of water were added to a 100 μL aliquot of human plasma. […] The pharmacokinetic parameters were calculated with data analysis system (DAS) program (version 2.0, Mathematical Pharmacology Professional Committee, Shanghai, China). […] The area under the curve from time zero to the last sampling time (AUC0−t) was determined using the linear trapezoidal rule.
metric-name: AUC(0-t) (ng·h/mL)
Answers are plain numbers, in ng·h/mL.

I have this compound here, "O=C(O)CNC(=O)c1cccnc1" , and I need its recorded AUC(0-t).
2150

###

# protocol-details: Pharmacokinetics of NA and NUA in plasma after single oral doses of Niacin extended-release/Simvastatin tablets in healthy Chinese volunteers
# Format: in vivo
# measurement-context: both sexes, human, plasma, po, 1 tablet
metric-name: AUC(0-t) (ng·h/mL)
Answers are plain numbers, in ng·h/mL.

Report AUC(0-t) for "O=C(O)c1cccnc1" please.
349

###

# protocol-details: Pharmacokinetics of NA and NUA in plasma after single oral doses of Niacin extended-release/Simvastatin tablets in healthy Chinese volunteers
# Assay type: in vivo
# measurement-context: both sexes, human, in vivo, po, 2 tablets (1000 mg/20 mg), mean ± S.D., n = 12
metric-name: Tmax (h)
One number for each entry, in h.

GET /values?readout=Tmax&item= "O=C(O)CNC(=O)c1cccnc1"
3.03
